# target_under_test: T1, human OX40 extracellular domain (ECD) protein (human, UniProt P43489 29-214)
# T1 construct: extracellular domain; also called human OX40 ECD; human OX40 protein; not shown: human Fc or His tag
# T1 sequence (looked up): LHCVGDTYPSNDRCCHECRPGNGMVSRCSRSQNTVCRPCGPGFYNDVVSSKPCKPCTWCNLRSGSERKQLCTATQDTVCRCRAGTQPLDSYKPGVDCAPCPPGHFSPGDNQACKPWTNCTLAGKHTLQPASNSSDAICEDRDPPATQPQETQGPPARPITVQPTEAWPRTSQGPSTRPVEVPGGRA
# assay_text: competition ELISA: human OX40 ECD coated, antibody titrated in a mix with a constant concentration of OX40L, bound OX40L detected at OD450
readout_label: IC50 (read off the curve)

### Prompt Return reported IC50 (read off the curve); argument: 1.186.19-u1-IgG1K (antibody, V domains shown, fully human IgG1, kappa) VH: QVHLVESGGGLVKPGGSLRLSCAASGFTFSDYYMGWIRQAPGQGLEWVSYISGSGNTIYYADSVKGRFTISRDNAKNSLYLQMNSLRADDTAVYFCAKERGAAGAGWFDPWGQGTLVTVSS VL: DIQMTQSPSSVSASVGDRVTITCRASQGISSWLAWYQQKPGKAPKLLIYAASSLQGGVPSRFSGSGSGTDFTLTISSLQPEDFATYHCQQVNSFPWTFGQGTKVEIK
### Response ~3 nM
